# measured on: UniProt P32246
# Sequence (P32246 whole entry): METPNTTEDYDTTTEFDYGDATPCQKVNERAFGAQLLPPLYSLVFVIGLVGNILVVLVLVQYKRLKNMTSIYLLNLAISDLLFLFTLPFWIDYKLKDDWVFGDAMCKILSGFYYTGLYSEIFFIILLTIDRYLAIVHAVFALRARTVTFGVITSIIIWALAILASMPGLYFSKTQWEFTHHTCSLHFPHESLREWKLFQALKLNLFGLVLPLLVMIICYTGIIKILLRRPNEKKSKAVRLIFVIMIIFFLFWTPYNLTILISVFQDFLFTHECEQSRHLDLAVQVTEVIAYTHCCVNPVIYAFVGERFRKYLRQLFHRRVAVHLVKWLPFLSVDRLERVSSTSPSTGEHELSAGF
# assay details: Agonist activity at human CCR1 expressed in CHO cells by cellular dielectric spectroscopy
property: EC50 (nM)
Please reply with the bare figure in nM and do not write the unit itself.

**Q:** Endpoint output: EC50 of Clc1ccc2c(NCCCCNc3ccnc4cc(Cl)ccc34)ccnc2c1 . Value?
**A:** 2000
